Test system: Plasmodium falciparum
Test: Primary screen in NF54 nanoGlo assay, in single point, at 2uM, 72h
Assay type: functional, Erythrocyte
Conditions: timepoint 72 hour
Screen size: about 150,000 compounds; about 540 (0.36%) showed an effect of 50% or more. Shown is part of a subset that was picked to be rich in strong results.
The entries below are paired with their reported % Inhibition.
property name: % Inhibition (%)

>  <smiles repr>
O=S1(=O)NC[C@H](O)CNC[C@@]2(COc3cc(-c4ccccc4)ccc31)C[C@@H](O)[C@@H](O)C2

>  <measurement>
-14

$$$$
>  <smiles repr>
Cn1nc(N2CC[C@H](NC(=O)C3CCCCC3)C2)ccc1=O

>  <measurement>
-6

$$$$
>  <smiles repr>
CC[n+]1c(/C=C/N(C)c2ccccc2)oc2ccccc21

>  <measurement>
80

$$$$
>  <smiles repr>
CC[n+]1c(/C=C/N(C)c2ccccc2)oc2ccc(-c3ccccc3)cc21

>  <measurement>
88

$$$$
>  <smiles repr>
Cc1ccc(CN2CCN(C[C@@H](O)Cn3c4ccccc4n4c(=O)cc(C)c(C#N)c34)CC2)c(C)c1

>  <measurement>
86

$$$$

---

Test system: Plasmodium falciparum
Experiment: Primary screen in NF54 nanoGlo assay, in single point, at 2uM, 72h
Format: functional, Erythrocyte
Details: timepoint 72 hour
Screen size: about 150,000 compounds; about 540 (0.36%) showed an effect of 50% or more. This is one part of a sample in which strong results are shown more often than they occur.

>  <smiles repr>
O=C(COc1ccc(Cl)cc1)N1CC(=O)N2CCc3ccccc3[C@@H]2C1

>  <unit string>
%

>  <% Inhibition>
-8

$$$$
>  <smiles repr>
COc1ccnc(C(=O)N(Cc2cnn(C)c2)C(C)C)c1

>  <unit string>
%

>  <% Inhibition>
-10

$$$$
>  <smiles repr>
O=C(CC(c1ccccc1)c1ccccc1)N1CC(=O)N2CCc3ccccc3[C@@H]2C1

>  <unit string>
%

>  <% Inhibition>
39

$$$$
>  <smiles repr>
c1ccc2c(C(c3c[nH]c4ccccc34)c3c[nH]c4ccccc34)c[nH]c2c1

>  <unit string>
%

>  <% Inhibition>
-27

$$$$
>  <smiles repr>
CCc1nc(C)c(C(=O)N(C)Cc2csc(-c3ccccc3)n2)s1

>  <unit string>
%

>  <% Inhibition>
-4

$$$$

---

Test system: Plasmodium falciparum
Test: Primary screen in NF54 nanoGlo assay, in single point, at 2uM, 72h
Format: functional, Erythrocyte
Conditions: timepoint 72 hour
About 540 (0.36%) of roughly 150,000 compounds showed an effect of 50% or more. For the sample, strong results were picked, then their nearest neighbours and some compounds at random.
property name: % Inhibition (%)

>  <compound>
CC(C)CC(=O)N(Cc1nccn1Cc1ccc(Cl)cc1Cl)CC1CC1

>  <system>
Plasmodium falciparum

>  <property name>
% Inhibition

>  <unit string>
%

>  <measurement>
-8

$$$$
>  <compound>
O=C(Cc1ccc(N(Cc2cccc(F)c2)C(=O)C2CCCC2)cc1)NCCN1CCCCC1

>  <system>
Plasmodium falciparum

>  <property name>
% Inhibition

>  <unit string>
%

>  <measurement>
59

$$$$
>  <compound>
COc1ccc(Cl)cc1[C@H](C)NCc1nncn1C1CC1

>  <system>
Plasmodium falciparum

>  <property name>
% Inhibition

>  <unit string>
%

>  <measurement>
-13

$$$$
>  <compound>
Cc1ccc(CN(C(=O)c2ccccc2C)c2cccc(CC(=O)NCCN3CCCC3)c2)cc1

>  <system>
Plasmodium falciparum

>  <property name>
% Inhibition

>  <unit string>
%

>  <measurement>
-9

$$$$
>  <compound>
Cc1c(F)cccc1C(=O)N(C)Cc1cc(C2CC2)on1

>  <system>
Plasmodium falciparum

>  <property name>
% Inhibition

>  <unit string>
%

>  <measurement>
1

$$$$
>  <compound>
O=C(O)C1(NCc2cc(-c3ccc(Cl)cc3)no2)CCCC1

>  <system>
Plasmodium falciparum

>  <property name>
% Inhibition

>  <unit string>
%

>  <measurement>
11

$$$$
>  <compound>
Cc1ccccc1C(=O)N(Cc1cccc(F)c1)c1ccc(CC(=O)NCCN2CCCCC2)cc1

>  <system>
Plasmodium falciparum

>  <property name>
% Inhibition

>  <unit string>
%

>  <measurement>
58

$$$$
>  <compound>
CCOc1cccc(C(=O)N[C@H]2CCN(Cc3ccccn3)C[C@@H]2O)c1

>  <system>
Plasmodium falciparum

>  <property name>
% Inhibition

>  <unit string>
%

>  <measurement>
2

$$$$
>  <compound>
CC1CN(C(=O)CN(C)c2cnccn2)CC(C)O1 (configuration not stated)

>  <system>
Plasmodium falciparum

>  <property name>
% Inhibition

>  <unit string>
%

>  <measurement>
-5

$$$$
>  <compound>
COc1ccc(C(=O)N[C@H]2CCOC3(CCOCC3)C2)c(C)c1

>  <system>
Plasmodium falciparum

>  <property name>
% Inhibition

>  <unit string>
%

>  <measurement>
0

$$$$
>  <compound>
CCC(=O)N(Cc1cccc(F)c1)c1ccc(CC(=O)NCCN2CCCC2)cc1

>  <system>
Plasmodium falciparum

>  <property name>
% Inhibition

>  <unit string>
%

>  <measurement>
-2

$$$$
>  <compound>
Cn1cc([C@@H]2CCCN2Cc2nccn2Cc2ccccc2)cn1

>  <system>
Plasmodium falciparum

>  <property name>
% Inhibition

>  <unit string>
%

>  <measurement>
-5

$$$$
>  <compound>
COc1c(C)cnc(Cn2cnc(N)n2)c1C

>  <system>
Plasmodium falciparum

>  <property name>
% Inhibition

>  <unit string>
%

>  <measurement>
8

$$$$
>  <compound>
COc1cccc(C(=O)N(Cc2ccc(C)cc2)c2cccc(CC(=O)N[C@@H](C)c3ccccc3)c2)c1

>  <system>
Plasmodium falciparum

>  <property name>
% Inhibition

>  <unit string>
%

>  <measurement>
-8

$$$$
>  <compound>
Cc1ccc(C(=O)N(Cc2cccc(F)c2)c2ccc(CC(=O)N[C@@H](C)c3ccccc3)cc2)cc1

>  <system>
Plasmodium falciparum

>  <property name>
% Inhibition

>  <unit string>
%

>  <measurement>
74

$$$$
>  <compound>
O=C(NCCN1C(=O)COC1=O)c1cccs1

>  <system>
Plasmodium falciparum

>  <property name>
% Inhibition

>  <unit string>
%

>  <measurement>
12

$$$$
>  <compound>
CC1CC(C(=O)NCC2CCCCC2)c2ccccc2N1 (configuration not stated)

>  <system>
Plasmodium falciparum

>  <property name>
% Inhibition

>  <unit string>
%

>  <measurement>
3

$$$$
>  <compound>
O=C(Cn1cc(S(=O)(=O)N2CCOCC2)ccc1=O)Nc1ccc(F)cc1Cl

>  <system>
Plasmodium falciparum

>  <property name>
% Inhibition

>  <unit string>
%

>  <measurement>
4

$$$$
>  <compound>
CC(=O)N[C@@H]1CN(Cc2nccn2Cc2ccccc2)C[C@H]1c1nccn1C

>  <system>
Plasmodium falciparum

>  <property name>
% Inhibition

>  <unit string>
%

>  <measurement>
30

$$$$
>  <compound>
COc1cc(C(=O)NCCNC(=O)c2cc(-c3ccccc3)nc3ccccc23)cc(OC)c1OC

>  <system>
Plasmodium falciparum

>  <property name>
% Inhibition

>  <unit string>
%

>  <measurement>
-11

$$$$
>  <compound>
O=C(Cc1ccc(N(Cc2cccc(F)c2)C(=O)C2CCCC2)cc1)NCCN1CCCC1

>  <system>
Plasmodium falciparum

>  <property name>
% Inhibition

>  <unit string>
%

>  <measurement>
25

$$$$
>  <compound>
Cc1cccc(CN(C(=O)C2CCCC2)c2ccc(CC(=O)NCCN3CCCC3)cc2)c1

>  <system>
Plasmodium falciparum

>  <property name>
% Inhibition

>  <unit string>
%

>  <measurement>
20

$$$$

---

Test system: Plasmodium falciparum
Assay: Primary screen in NF54 nanoGlo assay, in single point, at 2uM, 72h
Assay type: functional, Erythrocyte
Conditions: timepoint 72 hour
Hit rate of the full screen: of about 150,000 compounds, about 540 (0.36%) showed an effect of 50% or more. Many of the other results were omitted from the sample, so strong results are more common in it than they were.
property name: % Inhibition (%)

>  <smiles repr>
Cc1cc(S(=O)(=O)N(C)CCC(=O)O)sc1C

>  <measurement>
-30

$$$$
>  <smiles repr>
Cc1cc([C@H](Nc2ccccn2)c2ccccc2)c(NC(=O)c2ccccc2)s1

>  <measurement>
31

$$$$
>  <smiles repr>
N#Cc1c(CN2CCOCC2)cc(=O)n2c1[nH]c1ccccc12

>  <measurement>
35

$$$$
>  <smiles repr>
Oc1ccc2ncccc2c1[C@@H](Nc1ccccn1)c1cccc(Cl)c1

>  <measurement>
34

$$$$
>  <smiles repr>
C[C@H](O)CN1CCN(Cc2cn3ccccc3c2C#N)CC1

>  <measurement>
-13

$$$$
>  <smiles repr>
Oc1ccc2ncccc2c1[C@@H](Nc1ccccn1)c1cccc(Br)c1

>  <measurement>
58

$$$$
